- measurementNotes: TOX21_p53_BLA_p5_viability: Viability Assessment in the Tox21 HCT-116 p53 Agonism Beta-lactamase Assay, Phase 5 (AID 2283600)
- Excerpt: TOX21_p53_BLA_p5 is a cell-based, single-readout assay that uses HCT116, a human intestinal cell line, […] in a 1536-well plate.TOX21_p53_BLA_p5_viability is an assay readout measuring cellular ATP content and detected with CellTiter-Glo Luciferase-coupled ATP quantitation.TOX21_p53_BLA_p5_viability used a type of viability reporter where loss-of-signal activity can be used to understand changes in the cell viability. […]
Inconclusive results are not listed. Active and inactive are the calls of the source. How the source made its calls: active means hit-call score of the fitted dose curve at least 0.9, where 1 is the maximum; inconclusive means response in the unintended direction; inactive means score below 0.9.
The reply should be one of these categories: y for active, n for inactive

(Q) GET /call?item= CC(=O)NCc1c(I)c(NC(C)=O)c(I)c(C(=O)O)c1I returns the recorded outcome of this test.
(A) n

(Q) GET /call?item= N=C1N=C(N)c2cc3ccccc3cc21 returns the recorded outcome of this test.
(A) y

(Q) GET /call?item= CCC(=O)O[C@]1(C(=O)SCF)[C@H](C)C[C@H]2[C@@H]3C[C@H](F)C4=CC(=O)C=C[C@]4(C)[C@@]3(F)[C@@H](O)C[C@@]21C returns the recorded outcome of this test.
(A) n

(Q) GET /call?item= Cc1ccc(S(=O)(=O)NC(=O)NN2CC3CCCC3C2)cc1 (stereo not given) returns the recorded outcome of this test.
(A) n

(Q) GET /call?item= COCC(=O)O[C@]1(CCN(C)CCCc2nc3ccccc3[nH]2)CCc2cc(F)ccc2[C@@H]1C(C)C returns the recorded outcome of this test.
(A) y

(Q) GET /call?item= O=C(O)c1cc(O)c2c(c1)[C@H]([C@H]1c3cc(C(=O)O)cc(O)c3C(=O)c3c(O[C@@H]4O[C@H](CO)[C@@H](O)[C@H](O)[C@H]4O)cccc31)c1cccc(O[C@@H]3O[C@H](CO)[C@@H](O)[C@H](O)[C@H]3O)c1C2=O returns the recorded outcome of this test.
(A) n

(Q) GET /call?item= CCCCCCCCCOC(=O)c1ccc(O)cc1 returns the recorded outcome of this test.
(A) n

(Q) GET /call?item= Cc1cccc(CN2CCN(C(c3ccccc3)c3ccc(Cl)cc3)CC2)c1 (stereo not given) returns the recorded outcome of this test.
(A) n
